# Test system: Saccharomyces cerevisiae
# EXPERIMENT_NOTES: protein stability index of tFT-peptide fusion in deletion strain of DAS1 (PSI (0-1 scale)); higher = more stable (slower turnover)
Answer NOT MET if protein stability index is under 0.6, and MET if it is 0.6 or more.

>  <INPUT_SEQUENCE>
LKILRQKMNMQN

>  <QUALITATIVE_LABEL>
MET

$$$$
>  <INPUT_SEQUENCE>
LVVYLSCVACIQ

>  <QUALITATIVE_LABEL>
NOT MET

$$$$
>  <INPUT_SEQUENCE>
PSLADSFWRVVG

>  <QUALITATIVE_LABEL>
MET

$$$$
>  <INPUT_SEQUENCE>
KKHKKGQKQKING

>  <QUALITATIVE_LABEL>
MET

$$$$

====

# Tested on: Saccharomyces cerevisiae
# EXPERIMENT_NOTES: protein stability index of tFT-peptide fusion (C-terminal peptide) (PSI (0-1 scale)); higher = more stable (slower turnover)
# CONDITION_DETAILS: genetic background: wild type; temperature: 30 C

>  <INPUT_SEQUENCE>
YSLIPLSSISQH

>  <protein stability index>
0.685

$$$$
>  <INPUT_SEQUENCE>
PPPPLLSPPSPP

>  <protein stability index>
0.714

$$$$
>  <INPUT_SEQUENCE>
GLRGRRRAAGRV

>  <protein stability index>
0.726

$$$$
>  <INPUT_SEQUENCE>
LGGVGSSGDVVA

>  <protein stability index>
0.648

$$$$
>  <INPUT_SEQUENCE>
LLPSPSYPLSPS

>  <protein stability index>
0.751

$$$$
>  <INPUT_SEQUENCE>
PPLSPLSPLAPP

>  <protein stability index>
0.712

$$$$
>  <INPUT_SEQUENCE>
VFSCFLFLVVLV

>  <protein stability index>
0.242

$$$$
>  <INPUT_SEQUENCE>
RALRAGVGVRAC

>  <protein stability index>
0.662

$$$$
>  <INPUT_SEQUENCE>
GEGVRGGEWGLD

>  <protein stability index>
0.717

$$$$
>  <INPUT_SEQUENCE>
NQEIGLRNQGRV

>  <protein stability index>
0.69

$$$$
>  <INPUT_SEQUENCE>
GIGCMVYKGGFQ

>  <protein stability index>
0.698

$$$$
>  <INPUT_SEQUENCE>
WDPKISVFVLID

>  <protein stability index>
0.403

$$$$
>  <INPUT_SEQUENCE>
RGVRGLWGGKRG

>  <protein stability index>
0.626

$$$$
>  <INPUT_SEQUENCE>
WDGWPTGSGGTG

>  <protein stability index>
0.727

$$$$
>  <INPUT_SEQUENCE>
NRYKIKKKIERR

>  <protein stability index>
0.6

$$$$
>  <INPUT_SEQUENCE>
RKEGRGEEPEKG

>  <protein stability index>
0.65

$$$$
>  <INPUT_SEQUENCE>
TSGHSCGRGLLD

>  <protein stability index>
0.64

$$$$
>  <INPUT_SEQUENCE>
GSLWGGFFRGLL

>  <protein stability index>
0.701

$$$$
>  <INPUT_SEQUENCE>
CSLFYVFYRRLL

>  <protein stability index>
0.38

$$$$
>  <INPUT_SEQUENCE>
GDYGRLINLVTR

>  <protein stability index>
0.682

$$$$
>  <INPUT_SEQUENCE>
QFQRTLCGKRWV

>  <protein stability index>
0.685

$$$$
>  <INPUT_SEQUENCE>
KVGQWLRGKSKR

>  <protein stability index>
0.717

$$$$
>  <INPUT_SEQUENCE>
GNDRRKNNICEI

>  <protein stability index>
0.701

$$$$
>  <INPUT_SEQUENCE>
LPAEGSTKSRSY

>  <protein stability index>
0.741

$$$$
>  <INPUT_SEQUENCE>
LPHIFFCLFSLL

>  <protein stability index>
0.289

$$$$
>  <INPUT_SEQUENCE>
GSRIVCFWSGAG

>  <protein stability index>
0.717

$$$$
>  <INPUT_SEQUENCE>
TRCGGRWGEGWR

>  <protein stability index>
0.72

$$$$
>  <INPUT_SEQUENCE>
RILSFVSCYSLL

>  <protein stability index>
0.506

$$$$

====

# Test system: Saccharomyces cerevisiae
# EXPERIMENT_NOTES: protein stability index of tFT-peptide fusion (C-terminal peptide) (PSI (0-1 scale)); higher = more stable (slower turnover)
# CONDITION_DETAILS: genetic background: wild type; temperature: 30 C

>  <INPUT_SEQUENCE>
GHSALWQVPRLM

>  <TEST_SYSTEM>
Saccharomyces cerevisiae

>  <protein stability index>
0.474

$$$$
>  <INPUT_SEQUENCE>
PPPHRPWSPVPP

>  <TEST_SYSTEM>
Saccharomyces cerevisiae

>  <protein stability index>
0.716

$$$$
>  <INPUT_SEQUENCE>
PPTPTPPHPPPP

>  <TEST_SYSTEM>
Saccharomyces cerevisiae

>  <protein stability index>
0.611

$$$$
>  <INPUT_SEQUENCE>
PRGTFARSRSTG

>  <TEST_SYSTEM>
Saccharomyces cerevisiae

>  <protein stability index>
0.716

$$$$
>  <INPUT_SEQUENCE>
SYCFCCCVLFWG

>  <TEST_SYSTEM>
Saccharomyces cerevisiae

>  <protein stability index>
0.407

$$$$
>  <INPUT_SEQUENCE>
GKQNQEKNKKTS

>  <TEST_SYSTEM>
Saccharomyces cerevisiae

>  <protein stability index>
0.696

$$$$
>  <INPUT_SEQUENCE>
HWTLRRGTGIEL

>  <TEST_SYSTEM>
Saccharomyces cerevisiae

>  <protein stability index>
0.669

$$$$
>  <INPUT_SEQUENCE>
SPSPPHPLTTTL

>  <TEST_SYSTEM>
Saccharomyces cerevisiae

>  <protein stability index>
0.711

$$$$
>  <INPUT_SEQUENCE>
SPLPLFSPCPPP

>  <TEST_SYSTEM>
Saccharomyces cerevisiae

>  <protein stability index>
0.693

$$$$

====

# Test system: Saccharomyces cerevisiae
# EXPERIMENT_NOTES: protein stability index of tFT-peptide fusion (C-terminal peptide) (PSI (0-1 scale)); higher = more stable (slower turnover)
# CONDITION_DETAILS: genetic background: wild type; temperature: 30 C
Answer no if protein stability index is under 0.7, and yes if it is 0.7 or more.

>  <INPUT_SEQUENCE>
DGGSGQGMFGGS

>  <TEST_SYSTEM>
Saccharomyces cerevisiae

>  <QUALITATIVE_LABEL>
no

$$$$
>  <INPUT_SEQUENCE>
AISAGRTFVEVV

>  <TEST_SYSTEM>
Saccharomyces cerevisiae

>  <QUALITATIVE_LABEL>
no

$$$$
>  <INPUT_SEQUENCE>
GCCWGCRIGEAV

>  <TEST_SYSTEM>
Saccharomyces cerevisiae

>  <QUALITATIVE_LABEL>
no

$$$$
>  <INPUT_SEQUENCE>
VCRGWCVVRYIL

>  <TEST_SYSTEM>
Saccharomyces cerevisiae

>  <QUALITATIVE_LABEL>
no

$$$$
>  <INPUT_SEQUENCE>
RFFKMREAIRIS

>  <TEST_SYSTEM>
Saccharomyces cerevisiae

>  <QUALITATIVE_LABEL>
no

$$$$
>  <INPUT_SEQUENCE>
LVGLLASWLRFN

>  <TEST_SYSTEM>
Saccharomyces cerevisiae

>  <QUALITATIVE_LABEL>
no

$$$$
>  <INPUT_SEQUENCE>
GMVSPVRIVSRR

>  <TEST_SYSTEM>
Saccharomyces cerevisiae

>  <QUALITATIVE_LABEL>
no

$$$$
>  <INPUT_SEQUENCE>
SPPHSLSSSCSL

>  <TEST_SYSTEM>
Saccharomyces cerevisiae

>  <QUALITATIVE_LABEL>
yes

$$$$
>  <INPUT_SEQUENCE>
VVVLFGRLVVIC

>  <TEST_SYSTEM>
Saccharomyces cerevisiae

>  <QUALITATIVE_LABEL>
no

$$$$
>  <INPUT_SEQUENCE>
PPNPPPGPTVPF

>  <TEST_SYSTEM>
Saccharomyces cerevisiae

>  <QUALITATIVE_LABEL>
yes

$$$$
>  <INPUT_SEQUENCE>
GGGGLRVVVWLV

>  <TEST_SYSTEM>
Saccharomyces cerevisiae

>  <QUALITATIVE_LABEL>
no

$$$$
>  <INPUT_SEQUENCE>
NYKFENQIAKPP

>  <TEST_SYSTEM>
Saccharomyces cerevisiae

>  <QUALITATIVE_LABEL>
no

$$$$
>  <INPUT_SEQUENCE>
SGVRGRGSFWSV

>  <TEST_SYSTEM>
Saccharomyces cerevisiae

>  <QUALITATIVE_LABEL>
no

$$$$
>  <INPUT_SEQUENCE>
SRRRRLVSKFLA

>  <TEST_SYSTEM>
Saccharomyces cerevisiae

>  <QUALITATIVE_LABEL>
no

$$$$
>  <INPUT_SEQUENCE>
DDPGPSTHPRSA

>  <TEST_SYSTEM>
Saccharomyces cerevisiae

>  <QUALITATIVE_LABEL>
no

$$$$
>  <INPUT_SEQUENCE>
RFCRPLSHTALA

>  <TEST_SYSTEM>
Saccharomyces cerevisiae

>  <QUALITATIVE_LABEL>
no

$$$$
>  <INPUT_SEQUENCE>
QKKKEKKQKEGD

>  <TEST_SYSTEM>
Saccharomyces cerevisiae

>  <QUALITATIVE_LABEL>
no

$$$$
>  <INPUT_SEQUENCE>
SQVILFFLSLCR

>  <TEST_SYSTEM>
Saccharomyces cerevisiae

>  <QUALITATIVE_LABEL>
no

$$$$
>  <INPUT_SEQUENCE>
VPGRSPTKSTVS

>  <TEST_SYSTEM>
Saccharomyces cerevisiae

>  <QUALITATIVE_LABEL>
no

$$$$
>  <INPUT_SEQUENCE>
DFLSGRCIFFYV

>  <TEST_SYSTEM>
Saccharomyces cerevisiae

>  <QUALITATIVE_LABEL>
no

$$$$
>  <INPUT_SEQUENCE>
EGINVEICISLL

>  <TEST_SYSTEM>
Saccharomyces cerevisiae

>  <QUALITATIVE_LABEL>
no

$$$$
>  <INPUT_SEQUENCE>
TAGVQSGCTRII

>  <TEST_SYSTEM>
Saccharomyces cerevisiae

>  <QUALITATIVE_LABEL>
no

$$$$
>  <INPUT_SEQUENCE>
RVFLVLFLILSG

>  <TEST_SYSTEM>
Saccharomyces cerevisiae

>  <QUALITATIVE_LABEL>
no

$$$$
>  <INPUT_SEQUENCE>
PPPSAPLPPSPP

>  <TEST_SYSTEM>
Saccharomyces cerevisiae

>  <QUALITATIVE_LABEL>
no

$$$$
>  <INPUT_SEQUENCE>
RVLKIIGFITYA

>  <TEST_SYSTEM>
Saccharomyces cerevisiae

>  <QUALITATIVE_LABEL>
no

$$$$
>  <INPUT_SEQUENCE>
LHASCVYTILLV

>  <TEST_SYSTEM>
Saccharomyces cerevisiae

>  <QUALITATIVE_LABEL>
no

$$$$
>  <INPUT_SEQUENCE>
CSRLDVSEVVGD

>  <TEST_SYSTEM>
Saccharomyces cerevisiae

>  <QUALITATIVE_LABEL>
no

$$$$
>  <INPUT_SEQUENCE>
LLNIPLVFFSFP

>  <TEST_SYSTEM>
Saccharomyces cerevisiae

>  <QUALITATIVE_LABEL>
no

$$$$
>  <INPUT_SEQUENCE>
VGGGGECCFLEG

>  <TEST_SYSTEM>
Saccharomyces cerevisiae

>  <QUALITATIVE_LABEL>
yes

$$$$
>  <INPUT_SEQUENCE>
GGGRWGAGVKGV

>  <TEST_SYSTEM>
Saccharomyces cerevisiae

>  <QUALITATIVE_LABEL>
no

$$$$
>  <INPUT_SEQUENCE>
YFVSCACSSYFV

>  <TEST_SYSTEM>
Saccharomyces cerevisiae

>  <QUALITATIVE_LABEL>
no

$$$$
>  <INPUT_SEQUENCE>
QFVSALVCLSVG

>  <TEST_SYSTEM>
Saccharomyces cerevisiae

>  <QUALITATIVE_LABEL>
no

$$$$
>  <INPUT_SEQUENCE>
TQLNATVSWTEK

>  <TEST_SYSTEM>
Saccharomyces cerevisiae

>  <QUALITATIVE_LABEL>
no

$$$$
>  <INPUT_SEQUENCE>
GCVGGGWRHVGV

>  <TEST_SYSTEM>
Saccharomyces cerevisiae

>  <QUALITATIVE_LABEL>
yes

$$$$
>  <INPUT_SEQUENCE>
NVSFHRSHLLYF

>  <TEST_SYSTEM>
Saccharomyces cerevisiae

>  <QUALITATIVE_LABEL>
no

$$$$
>  <INPUT_SEQUENCE>
LRPCAGAVRPSA

>  <TEST_SYSTEM>
Saccharomyces cerevisiae

>  <QUALITATIVE_LABEL>
yes

$$$$
>  <INPUT_SEQUENCE>
CKCKFLGLSATM

>  <TEST_SYSTEM>
Saccharomyces cerevisiae

>  <QUALITATIVE_LABEL>
no

$$$$
>  <INPUT_SEQUENCE>
GVLPRPPPTEGT

>  <TEST_SYSTEM>
Saccharomyces cerevisiae

>  <QUALITATIVE_LABEL>
yes

$$$$
>  <INPUT_SEQUENCE>
RTSLRYLKRVER

>  <TEST_SYSTEM>
Saccharomyces cerevisiae

>  <QUALITATIVE_LABEL>
no

$$$$
>  <INPUT_SEQUENCE>
STPPLSLRPLLR

>  <TEST_SYSTEM>
Saccharomyces cerevisiae

>  <QUALITATIVE_LABEL>
no

$$$$
>  <INPUT_SEQUENCE>
LLPNLFDSQFRE

>  <TEST_SYSTEM>
Saccharomyces cerevisiae

>  <QUALITATIVE_LABEL>
yes

$$$$
